# protocolDescription: Stability in pharmaceutical solvents / excipients at 30 and 40 °C
# measurementParameters: pharmaceutical solvents

>  <compound>
CC(=C/C(=O)O)/C(=C/c1ccc2cc3c(cc2c1)C(C)(C)CCC3(C)C)c1cccc(C(=O)O)c1 [BMS-188184-05]

>  <remaining at 240 h>
< 90%

$$$$
